Target: Focal adhesion kinase 1 (Homo sapiens) (UniProt Q05397)
Sequence (Q05397 whole entry, looked up): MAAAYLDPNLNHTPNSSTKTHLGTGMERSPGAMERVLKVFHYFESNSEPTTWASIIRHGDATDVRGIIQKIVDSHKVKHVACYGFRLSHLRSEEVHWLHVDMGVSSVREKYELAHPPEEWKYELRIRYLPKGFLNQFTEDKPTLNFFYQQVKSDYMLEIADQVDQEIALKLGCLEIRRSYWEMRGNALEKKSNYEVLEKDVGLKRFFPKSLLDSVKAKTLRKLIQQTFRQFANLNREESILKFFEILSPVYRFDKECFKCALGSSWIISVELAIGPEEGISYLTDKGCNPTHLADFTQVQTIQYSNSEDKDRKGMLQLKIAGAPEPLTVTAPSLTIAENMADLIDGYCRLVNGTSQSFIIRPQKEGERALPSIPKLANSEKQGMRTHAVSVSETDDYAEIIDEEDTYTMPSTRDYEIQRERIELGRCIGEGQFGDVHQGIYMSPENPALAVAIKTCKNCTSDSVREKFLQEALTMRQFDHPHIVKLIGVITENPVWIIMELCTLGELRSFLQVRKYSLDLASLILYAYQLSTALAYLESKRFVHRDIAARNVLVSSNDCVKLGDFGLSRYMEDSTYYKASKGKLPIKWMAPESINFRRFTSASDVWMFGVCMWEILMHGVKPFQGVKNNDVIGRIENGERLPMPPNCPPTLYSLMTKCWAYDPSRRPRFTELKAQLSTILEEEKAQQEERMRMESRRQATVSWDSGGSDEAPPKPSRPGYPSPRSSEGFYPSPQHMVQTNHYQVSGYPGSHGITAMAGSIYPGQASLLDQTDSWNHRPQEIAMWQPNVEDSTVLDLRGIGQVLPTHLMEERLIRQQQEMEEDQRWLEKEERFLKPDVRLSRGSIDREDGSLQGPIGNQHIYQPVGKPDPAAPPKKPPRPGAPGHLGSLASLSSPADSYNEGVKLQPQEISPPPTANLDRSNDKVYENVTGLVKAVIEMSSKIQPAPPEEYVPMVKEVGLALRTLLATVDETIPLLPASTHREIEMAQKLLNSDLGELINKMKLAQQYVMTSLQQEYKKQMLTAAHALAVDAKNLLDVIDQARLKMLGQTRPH
Assay: small-molecule microarray binders of FAK, primary screen, biochemical, 635/667 nm fluorescence, BSA, DTT (AID 1130);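 note: composite of spot emission at 667 nm and signal to noise over triplicate slides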
Details: PTK2 binding, 635 nm fluorescence, higher = more signal
parameter.measured: composite z-score
Answers are plain numbers.

// solved cases for composite z-score follow
compound	system.name	recorded.result
O=C1C2C=CC(C(O)c3ccccc3)N(n3cnnc3)C2C(=O)N1Cc1ccccc1 (stereo unspecified)	Focal adhesion kinase 1 (Homo sapiens) (UniProt Q05397)	0.321
C[C@@H]1CC[C@H]2C(=O)N3[C@@H](CC[C@@H](C)[C@@H]3c3cccc(N4CCOCC4)c3)C(=O)N2[C@H]1c1cccc(Br)c1	Focal adhesion kinase 1 (Homo sapiens) (UniProt Q05397)	-0.0269
COC(=O)C1=CC(c2ccc(CO)cc2)=CC(C2CC2)N(Cc2sc3ccccc3c2Cl)C=C1C(=O)OC (stereo unspecified)	Focal adhesion kinase 1 (Homo sapiens) (UniProt Q05397)	1.46
CO[C@@H]1COC(=O)[C@H](C)NC(=O)CC=C[C@@H](C)[C@H](NS(=O)(=O)c2ccc(C)cc2)COC(=O)CC=C[C@@H]1C	Focal adhesion kinase 1 (Homo sapiens) (UniProt Q05397)	-0.181
C[C@@H]1C=CCC(=O)OC[C@H]2O[C@@H](C=C[C@@H]2O)[C@H](C)C=CCC(=O)OC[C@H]2O[C@H]1C=C[C@@H]2O	Focal adhesion kinase 1 (Homo sapiens) (UniProt Q05397)	-0.095

Required: composite z-score, one value per compound below.
1. O=C1O[C@H](c2ccccc2)[C@H](c2ccccc2)N2[C@H]1[C@@H](C(=O)NC[C@H](O)c1ccccc1)[C@]1(C(=O)Nc3ccc(C#CC4=CCCCC4)cc31)[C@H]2c1ccc(OCCO)cc1
2. CN(C)CCCC[C@@H]1NC(=O)[C@@H]2C[C@H](C(=O)O)[C@H](c3ccc(O)cc3)N2C1=O
3. C=CCC(OC(C)=O)[C@@H]1[C@@H](N(Cc2cc3ccccc3o2)C(=O)c2ccc(C)cc2)c2cc(OCCCO)ccc2N1C(=O)c1ccc2ccccc2n1 (stereo partly specified)
4. COc1cc(Cc2cc3c(c(CCc4ccccc4)n2)[Si](C(C)C)(C(C)C)OC3)cc(OC)c1OC
5. C=CC[C@]1(C(=O)OC)N=C(c2ccc(OCCCO)cc2)O[C@H]1c1ccccc1CN=[N+]=[N-]
6. [N-]=[N+]=NCc1ccccc1C[C@]1(C(=O)N2CCCCC2)N=C(c2ccc(OCCCO)cc2)O[C@H]1c1ccccc1CN=[N+]=[N-]

Return:
1. 0.73
2. 0.324
3. 0.178
4. 0.0612
5. 0.5
6. 0.652

====

Molecular target: Carbonic anhydrase 2 (Homo sapiens)
Test: CAII small-molecule binders, profiling panel, biochemical, small-molecule microarray, Alexa647-labelled CAII (AID 1122)
Settings: CAII-A647 binding fluorescence, higher = more signal
parameter.measured: composite z-score
Give bare numbers.

Required: composite z-score, one value per compound below.
1. COC(=O)[C@@]1(Cc2ccc(OC)cc2)[C@H]2c3cc(C(=O)N(C)C)n(Cc4ccc(C)c(F)c4F)c3C[C@H]2CN1C(=O)c1ccccc1
2. C[C@@H]1CC[C@H]2C(=O)N3CCC[C@H]3C(=O)N2[C@H]1c1ccc(Br)cc1

Return:
1: 0.535; 2: -0.213

Required: composite z-score, one value per compound below.
1. CCN1C(C)=C(C(=O)OC)[C@@H](c2ccccc2)N2C(=O)[C@](O)(C(=O)OC)[C@@H](c3ccccc3)C(C(=O)c3ccccc3)=C12
2. COCCCNC(=O)[C@@H]1c2ccccc2C(=O)N(CC23CC4CC(CC(C4)C2)C3)[C@H]1c1ccc(CO)cc1
3. C=CC[C@]1(C(N)=O)N=C(c2ccc(OCCCO)cc2)O[C@H]1c1ccccc1CN=[N+]=[N-]
4. COCC(=C=CC[C@H](O)c1ccc(OCCO)cc1)C[C@H](O)c1ccccn1

Return:
[0.401, 0.449, 0.856, 0.603]

Required: composite z-score, one value per compound below.
1. O=C1C2C=CC(C(O)Cc3ccccc3)N(Nc3ccc([N+](=O)[O-])cc3)C2C(=O)N1c1ccccc1 (stereo not given)
2. CCC(=O)[C@]12O[C@@]3([C@@H]4C(=O)OCC[C@@H]41)N(Cc1ccccc1)C(C)=C(C(=O)OC)[C@@H](c1ccccc1)N3C2=O
3. COc1ccc(-c2ccccc2[C@@H]2N[C@H](C(=O)O)CC[C@H]2C)cc1

Return:
1. 0.759
2. 0.463
3. 0.0441

Required: composite z-score, one value per compound below.
1. CN1C(=O)C2C=CC(C(O)c3ccc(N(C)C)cc3)N(Nc3ccc([N+](=O)[O-])cc3[N+](=O)[O-])C2C1=O (stereo not given)
2. Cc1ccc(N2C(=O)c3ccccc3[C@@H](C(=O)NCC(F)(F)F)[C@@H]2c2ccc(CO)cc2)nc1
3. C#CCCCON=C1C[C@@H](O)[C@@H](O)[C@@H]2[C@@H]3C(=O)N(Cc4ccc5c(c4)OCO5)C(=O)[C@@H]3CC[C@H]12
4. CO[C@H]1O[C@H](CO)[C@@H](OC(=O)Nc2ccc(Oc3ccccc3)cc2)[C@H](OC(=O)Nc2ccccc2-c2ccccc2)[C@H]1OC(=O)Nc1ccccc1-c1ccccc1
5. Cc1ccc(S[C@]2(C(=O)NC(C)C)CC(=O)N(C3Cc4ccccc4C3)[C@@H]2c2ccc(CO)cc2)cc1

Return:
1. 0.729
2. 0.844
3. 0.495
4. 0.442
5. 0.81

compound O=C1O[C@@H](c2ccccc2)[C@@H](c2ccccc2)N2[C@@H](c3ccc(O)cc3)[C@]3(C(=O)Nc4ccccc43)[C@@H](C(=O)N3CCN(c4ncccn4)CC3)[C@H]12 , composite z-score observed: 0.686
